Reported values of DC50 for individual entries
- system: Androgen Receptor (Homo sapiens)
- Construct: endogenous in cells; host or cells: VCaP cells
- Sequence (P10275 1-920): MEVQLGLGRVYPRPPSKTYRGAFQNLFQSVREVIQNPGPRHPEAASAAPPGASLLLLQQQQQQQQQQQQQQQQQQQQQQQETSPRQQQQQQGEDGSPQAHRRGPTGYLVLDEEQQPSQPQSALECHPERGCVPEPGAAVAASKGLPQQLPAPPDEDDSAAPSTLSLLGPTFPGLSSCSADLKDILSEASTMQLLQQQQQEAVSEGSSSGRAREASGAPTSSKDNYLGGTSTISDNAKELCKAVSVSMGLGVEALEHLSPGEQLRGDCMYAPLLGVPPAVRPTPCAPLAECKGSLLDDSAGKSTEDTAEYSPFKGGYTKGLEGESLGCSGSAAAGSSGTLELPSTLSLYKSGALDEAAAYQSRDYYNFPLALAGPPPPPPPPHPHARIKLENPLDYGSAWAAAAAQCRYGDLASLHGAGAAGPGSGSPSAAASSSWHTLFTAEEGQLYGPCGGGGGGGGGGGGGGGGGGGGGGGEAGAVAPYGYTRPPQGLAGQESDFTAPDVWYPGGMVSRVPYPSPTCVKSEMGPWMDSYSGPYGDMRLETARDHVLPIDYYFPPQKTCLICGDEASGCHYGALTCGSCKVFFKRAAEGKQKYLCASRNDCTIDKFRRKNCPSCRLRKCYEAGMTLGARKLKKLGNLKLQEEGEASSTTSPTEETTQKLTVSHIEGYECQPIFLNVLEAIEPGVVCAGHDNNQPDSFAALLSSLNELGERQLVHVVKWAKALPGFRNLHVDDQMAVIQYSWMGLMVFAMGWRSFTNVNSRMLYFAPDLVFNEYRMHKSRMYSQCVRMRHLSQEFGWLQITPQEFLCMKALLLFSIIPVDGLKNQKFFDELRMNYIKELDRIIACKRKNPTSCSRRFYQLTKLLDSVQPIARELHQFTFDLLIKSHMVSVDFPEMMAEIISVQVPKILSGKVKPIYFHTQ
- assayComment: Androgen Receptor ELISA assay (PathScan AR ELISA) in VCaP cells: AR degradation, Dmax and DC50
- Assay type: cell-based
- conditionLabel: read-out: VCaP DC50; VCaP cells; Table 36
endpointLabel: DC50

{"compound": "Cc1ncsc1-c1ccc(C(C)NC(=O)C2CC(O)CN2C(=O)C(NC(=O)COCCCOCCCCCOc2ccc(N3C(=S)N(c4ccc(C#N)c(C(F)(F)F)c4)C(=O)C3(C)C)cc2)C2COC2)cc1 (stereo not shown)", "endpointLabel": "DC50", "observedResult": "> 0.501 µM"}
{"compound": "Cc1ncsc1-c1ccc([C@H](C)NC(=O)[C@@H]2C[C@@H](O)CN2C(=O)[C@@H](NC(=O)COCCCOCCCCCNc2ccc(N3C(=S)N(c4ccc(C#N)c(C(F)(F)F)c4)C(=O)C3(C)C)cn2)C(C)(C)C)cc1", "endpointLabel": "DC50", "observedResult": "< 0.05 µM"}
{"compound": "Cc1ncsc1-c1ccc([C@H](C)NC(=O)C2C[C@@H](O)CN2C(=O)C(NC(=O)CN2C3CCC2CN(CCCCc2ccc(C(=O)N[C@H]4C(C)(C)[C@H](Oc5ccc(C#N)c(Cl)c5)C4(C)C)cc2)C3)C(C)(C)C)cc1 (stereo partly shown)", "endpointLabel": "DC50", "observedResult": "< 0.05 µM"}
{"compound": "Cc1ncsc1-c1ccc([C@H](C)NC(=O)C2C[C@@H](O)CN2C(=O)C(NC(=O)CN2C3CCC2CN(CCCCc2ccc(C(=O)N[C@H]4C(C)(C)[C@H](Oc5ccc(C#N)c(Cl)c5)C4(C)C)cn2)C3)C(C)(C)C)cc1 (stereo partly shown)", "endpointLabel": "DC50", "observedResult": "< 0.05 µM"}
